# Tested on: Vero TMPRSS2 cells
# Protocol notes: Cytotoxicity at single concentration, CellTiter-Glo ATP quantitation
# Assay type: cell-based, African Green Monkey
# Stated conditions: 100 uM, 72 hours
// n strictly below 6% in % Cell Viability Replicate 2; y otherwise

Solved cases below.
C#Cc1cncc(-c2nnc(SCc3ccc(Cl)cc3)n2C)c1 [drawing 113] = n
CCCCCCC#Cc1cncc(-c2nnc(SCc3ccc(F)cc3)n2C)c1 [drawing 110] = y
CCCCCCC#Cc1cncc(-c2nnc(SCc3ccc(Cl)cc3)n2C)c1 [drawing 117] = n

Does the reported % Cell Viability Replicate 2 for CCCCCCC#Cc1cncc(-c2nnc(SCc3ccc(Cl)cc3)n2C2CC2)c1 [drawing 107] fall at or above the 6% mark? y

Does the reported % Cell Viability Replicate 2 for CCCCCCC#Cc1cncc(-c2nnc(SCCn3c([N+](=O)[O-])cnc3C)n2C)c1 [drawing 121] fall at or above the 6% mark? n

Does the reported % Cell Viability Replicate 2 for CCCCCCC#Cc1cncc(-c2nnc(SCc3ccc(C#N)cc3)n2C)c1 [drawing 98] fall at or above the 6% mark? y

Does the reported % Cell Viability Replicate 2 for CCCCCCC#Cc1cccc(-c2nnc(SCc3ccc(Cl)cc3)n2C)c1 [drawing 115] fall at or above the 6% mark? n
